Attribution: paper PMC11931385

- Target Of Assay: T1, Rb^P S463L (human, UniProt P06400 380-788, S463L)
- T1 construct: also called variant 10
- T1 sequence (looked up): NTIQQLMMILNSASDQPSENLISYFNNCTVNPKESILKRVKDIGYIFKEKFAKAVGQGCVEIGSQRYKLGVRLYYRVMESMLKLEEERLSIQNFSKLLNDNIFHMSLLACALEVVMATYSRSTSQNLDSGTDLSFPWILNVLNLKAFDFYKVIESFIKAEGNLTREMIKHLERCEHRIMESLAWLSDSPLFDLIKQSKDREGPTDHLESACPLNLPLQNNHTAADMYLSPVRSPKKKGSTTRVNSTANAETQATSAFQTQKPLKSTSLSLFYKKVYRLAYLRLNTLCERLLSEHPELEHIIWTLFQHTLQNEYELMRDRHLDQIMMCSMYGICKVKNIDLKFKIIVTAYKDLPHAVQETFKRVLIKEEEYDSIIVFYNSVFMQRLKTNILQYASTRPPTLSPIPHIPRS
- Protocol: fluorescence polarisation; 37 °C, after the 25 °C reading ramped over 7 min to 37 °C and 2 min incubation; unlabeled Rb^P against 1.5 nM TMR-E2F1^TD or 7.5 nM TMR-E7^LxCxE; 25 mM Tris pH 8.0, 200 mM NaCl, 1 mM DTT, 0.1% Tween-20; apparent Kd
- Measurement Conditions: both partners purified
No end group written: not given here. TMR = tetramethyl rhodamine dye
Parameter: pKd. Scope: all listed entries.
Kindly note that pKd refers to -log10 of the concentration in mol/L and answer with the value alone.

Binder	Numeric Readout
{TMR}-GEGIRDLFDCDFGDLTPLD (also called E2F^TD; source: synthetic peptide, bought: GenScript) [TMR-E2F1^TD, peptide of the E2F1 transactivation domain]	7.39

// lookup pKd for DLYCYEQLN (also: TMR label, position not given here, source: synthetic peptide, bought: GenScript) [TMR-E7^LxCxE, LxCxE peptide of the E7 oncoprotein from HPV]
7.77
